- Procedure Details: Plasma PK and tissue distribution after oral dosing of INTERMEDIATE C4 (3 mg/kg)
- Format: in vivo
- Condition Description: male, Wistar Han, rat, lymph node, po, 3 mg/kg, PO 3 mg/kg INTERMEDIATE C4, male Wistar Han rat, 4 hr; read-out: lymph node Concentration Mean
Readout: concentration at 4 h (ng/g)
The reply should be a number in ng/g, with the unit left off.

Input line: What does the data say about its concentration at 4 h? Entry: CC(C)CN(c1ccc([C@H](C)CC(=O)O)cc1Nc1cnc(Cl)cn1)C1CCOCC1 [intermediate C4]
Output line: 45.7

====

- Target Or Test System: indoleamine 2, 3-dioxygenase (IDO1) (Homo sapiens, UniProt P14902)
- Construct: to induce the expression of indoleamine 2, 3-dioxygenase (IDO1); host or cells: human PBMC stimulated with IFN-gamma and LPS
- Sequence (P14902 whole entry): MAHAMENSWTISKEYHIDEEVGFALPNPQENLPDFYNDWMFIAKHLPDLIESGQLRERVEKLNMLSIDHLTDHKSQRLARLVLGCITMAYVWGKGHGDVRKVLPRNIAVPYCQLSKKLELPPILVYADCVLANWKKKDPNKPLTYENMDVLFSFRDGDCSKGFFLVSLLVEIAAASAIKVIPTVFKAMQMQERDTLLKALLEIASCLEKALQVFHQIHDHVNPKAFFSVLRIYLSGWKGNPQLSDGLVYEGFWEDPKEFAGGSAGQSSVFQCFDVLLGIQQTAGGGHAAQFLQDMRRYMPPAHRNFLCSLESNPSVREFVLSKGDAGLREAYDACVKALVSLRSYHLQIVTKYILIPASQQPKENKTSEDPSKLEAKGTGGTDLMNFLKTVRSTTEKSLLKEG
- Procedure Details: IDO1 PBMC RapidFire MS assay (kynurenine detection)
- Format: cell-based
- Condition Description: IFN-γ/LPS stimulated human PBMC, kynurenine by MS, 2 days; read-out: PBMC PXC50 (converted)
Readout: IC50 (nM)
The reply should be a number in nM, with the unit left off.

Compound	Reported Value
CCCCCCCCCCCCCCCC(=O)OCC(COC(=O)CCCCCCCCCCCCCCC)OC(=O)CC(C)CC(=O)OCOC(=O)C[C@@H](C)c1ccc(N(CC(C)C)C2CCOCC2)c(Nc2cnc(Cl)cn2)c1 (stereo partly shown) [example 7]	1000
CCCCCCCCCCCCCCCC(=O)OCC(COC(=O)CCCCCCCCCCCCCCC)OC(=O)CCCC(=O)O[C@H]1CC[C@H](N(CC(C)C)c2ccc([C@H](C)CC(=O)O)cc2Nc2ccc(Cl)nc2)CC1 [example 1]	158
CCCCCCCCCCCCCCCC(=O)OCC(COC(=O)CCCCCCCCCCCCCCC)OC(=O)CC(C)CC(=O)OCOC(=O)C[C@@H](C)c1ccc(N(CC(C)C)C2CCOCC2)c(Nc2ccc(Cl)nc2)c1 (stereo partly shown) [example 6]	3160
CCCCCCCCCCCCCCCC(=O)OCC(COC(=O)CCCCCCCCCCCCCCC)OC(=O)CC(C)CC(=O)O[C@H]1CC[C@H](N(CC(C)C)c2ccc([C@H](C)CC(=O)O)cc2Nc2cnc(Cl)cn2)CC1 (stereo partly shown) [example 4]	7940
CCCCCCCCCCCCCCCC(=O)OCC(COC(=O)CCCCCCCCCCCCCCC)OC(=O)CC(C)CC(=O)Oc1cc(C)cc(C)c1C(C)(C)CC(=O)O[C@H]1CC[C@H](N(CC(C)C)c2ccc([C@H](C)CC(=O)O)cc2Nc2cnc(Cl)cn2)CC1 (stereo partly shown) [example 5]	631

Input line: What does the data say about its IC50? Entry: CCCCCCCCCCCCCCCC(=O)OCC(COC(=O)CCCCCCCCCCCCCCC)OC(=O)CCCC(=O)O[C@H]1CC[C@H](N(CC(C)C)c2ccc([C@H](C)CC(=O)O)cc2Nc2cnc(Cl)cn2)CC1 [example 2]
Output line: 251

Input line: What does the data say about its IC50? Entry: CCCCCCCCCCCCCCCC(=O)OCC(COC(=O)CCCCCCCCCCCCCCC)OC(=O)CC(C)CC(=O)O[C@H]1CC[C@H](N(CC(C)C)c2ccc([C@H](C)CC(=O)O)cc2Nc2ccc(Cl)nc2)CC1 (stereo partly shown) [example 3]
Output line: 1260

Each recorded value in this set is attributed to patent US20210186960A1.
